- ASSAY_PROTOCOL: solvent given as SMILES
- CONDITION_PARAMETERS: in CCO
Give measured emission maximum for each item. Keep answers brief.
Return type: number; implicit unit nm.

Query :: What emission maximum value was documented for this compound, O=C([O-])c1ccccc1-c1c2cc(Br)c(=O)c(Br)c-2oc2c(Br)c([O-])c(Br)cc12 ?
Result :: 550

Query :: What emission maximum value was documented for this compound, CCCCNc1ccc(NCCCC)c2c1C(=O)c1ccccc1C2=O ?
Result :: 674

Query :: What emission maximum value was documented for this compound, Nc1c(-c2nn([C@H]3C[C@H](O)[C@@H](CO)O3)c3ncnc(N)c23)ccc2ccccc12 ?
Result :: 489

Query :: What emission maximum value was documented for this compound, COCCOc1cc(C=O)c(OCCOC)cc1C=O ?
Result :: 464

Query :: What emission maximum value was documented for this compound, CC1(C)Nc2ccccc2-c2[nH]c3ccccc3c(=O)c21 ?
Result :: 523

Query :: What emission maximum value was documented for this compound, O=S1(=O)c2ccccc2-c2c1c1ccccc1p2-c1ccccc1 (configuration not stated) ?
Result :: 464

Query :: What emission maximum value was documented for this compound, CCCCCCCCCCCCOc1cc2cc(N(C)C)ccc2cc1C=O ?
Result :: 521

Query :: What emission maximum value was documented for this compound, c1ccc(-c2c3ccc(=[N+]4CCCCC4)cc-3oc3cc(N4CCCCC4)ccc23)cc1 ?
Result :: 588

Query :: What emission maximum value was documented for this compound, CCOC(=O)c1cc(C(=O)NCc2ccccc2)c2ccc(N(C)C)cc2n1 ?
Result :: 586

Query :: What emission maximum value was documented for this compound, N#CC(C#N)=Cc1ccc(-c2cccc(-c3nc4ccccc4s3)c2O)s1 ?
Result :: 630

Query :: What emission maximum value was documented for this compound, Oc1cc(-c2cccs2)ccc1-c1nc2ccccc2s1 ?
Result :: 408

Query :: What emission maximum value was documented for this compound, CC1=N/C(=C\c2ccncc2)C(=O)N1C ?
Result :: 453

Query :: What emission maximum value was documented for this compound, CC(C)[Si]1(C(C)C)c2cc(C=O)ccc2-c2ccc(N(C)C)cc21 ?
Result :: 565

Query :: What emission maximum value was documented for this compound, CCOC(=O)C1CC(c2c(C#N)c(C)nn2-c2ccccc2)=CN1c1ccc(Br)cc1 (configuration not stated) ?
Result :: 490

Query :: What emission maximum value was documented for this compound, Fc1ccc(-c2nc3n(c2-c2ccncc2)CCS3)cc1 ?
Result :: 438

Query :: What emission maximum value was documented for this compound, Oc1c(-c2cccs2)cccc1-c1nc2ccccc2s1 ?
Result :: 585

Query :: What emission maximum value was documented for this compound, CCN(CC)c1ccc2c(-c3ccc(S(=O)(=O)O)cc3S(=O)(=O)[O-])c3ccc(=[N+](CC)CC)cc-3oc2c1 ?
Result :: 581

Query :: What emission maximum value was documented for this compound, CN(C)c1ccc(/C=C/c2cc[n+](CCCCC[n+]3ccc(/C=C/c4ccc(N(C)C)cc4)cc3)cc2)cc1 ?
Result :: 598

Query :: What emission maximum value was documented for this compound, c1ccc2cc(-n3cnc4ccccc43)ccc2c1 ?
Result :: 376

Query :: What emission maximum value was documented for this compound, Cc1nnc(-c2ccc(-n3c4ccccc4c4ccccc43)cc2)o1 ?
Result :: 440

Query :: What emission maximum value was documented for this compound, CN1/C(=C/C=C(/C=C/c2sc3ccccc3[n+]2C)c2ccc(F)cc2)Sc2ccccc21 ?
Result :: 674

Query :: What emission maximum value was documented for this compound, CN(C)c1ccc(-c2ccc(C#N)s2)s1 ?
Result :: 510
